system: MDA-MB-435 melanoma; assay: NCI-60 one-dose screen, 48 h; conditions: 10 µM unless noted
Compounds without any hit were thinned out: in the full panel of roughly 83,000, 20% have a hit. The source made the active and inactive calls. Rule for the calls: active = growth percent below 10; inactive = the rest.
Labels: class 1 (active), class 0 (inactive)

Compound	Qualitative Label
COC(=O)[C@]1(C)CC[C@]2(C)CC[C@]3(C)C(=CC(=O)[C@@H]4[C@@]5(C)CCC(=O)NC(C)(C)[C@@H]5CC[C@]43C)[C@@H]2C1	class 1
CCOC(=O)c1c[nH]c2cc(OCC3CC3)c(OCC3CC3)cc2c1=O	class 0
CCOC(=O)CCC[P+](c1ccccc1)(c1ccccc1)c1ccccc1	class 0
Cc1nn(-c2ccccc2)c(N2CCOCC2)c1-c1nc2ccc([N+](=O)[O-])cc2[nH]1	class 0
FC(F)(F)c1ccc2c(c1)Sc1ccccc1N2	class 0
CC(C)[C@H]1COC(=O)N1[C@@H]1C(=O)N([C@@H](CCC(=O)N2CCN(C3CCCC3)CC2)C(=O)N[C@@H]2CCCc3ccccc32)[C@@H]1/C=C/c1cccc(Cl)c1	class 0
CC(C)C1=NOC(=O)C1=Cc1cn(-c2ccccc2)nc1-c1ccc(Br)cc1	class 0
C[N+](C)(C)c1ncnc2[n-]cnc12	class 0
O=C(Nc1ccc(C(=O)/C=C/c2ccc(N3CCOCC3)cc2)cc1)Nc1ccc([N+](=O)[O-])cc1	class 0
COc1ccc(-c2cc(-c3ccc(Cl)cc3)nc(SCCCCCCC(=O)NO)n2)cc1	class 0
COC(=O)c1cc2c(=O)[nH]cc3c2c(n1)CCC3	class 0
Cc1cc(C)nc(SCC(=O)Nc2cccc(N=Cc3ccccc3O)c2)n1	class 0
COc1cc(C)cc2oc3oc(=O)c(-c4nc5ccccc5s4)cc3c(=O)c12	class 0
Cn1cc(-c2nnc(-c3cn(C)c4ncccc34)s2)c2ccccc21	class 1
COc1cc(NCc2ccccc2O)c2ncccc2c1	class 0
Cc1ccc(S(=O)(=O)Nc2ccccc2)cc1N	class 0
O=C(Nc1ccc(Cl)c(C(F)(F)F)c1)Nc1ccc(-c2cccnc2)cc1N1CCC(CO)CC1	class 0
COc1ccc(CC(C#N)c2ccc(Cl)cc2)cc1 (stereo unspecified)	class 1
COc1cccc(-c2[nH]c(=S)ncc2C(=O)c2ccccc2)c1	class 1
c1coc2occoc=2o1	class 0
COc1ccccc1S(=O)Nc1ccccc1 (stereo unspecified)	class 0

---

tested on: SF-295 CNS; assay: NCI-60 one-dose screen, 48 h (100 = growth as untreated, 0 = no growth, -100 = all killed); settings: 10 µM unless noted
Compounds without any hit were thinned out: in the full panel of roughly 83,000, 20% have a hit.
Lab note: anything with growth at or over 60% counts as T; the rest go in F.

Entry Smiles	Qualitative Label
Cn1cc(-c2noc(-c3cn(C)c4ncc(F)cc34)n2)c2ccccc21	F
Cc1nc(Cl)cc(N(c2cc(Cl)nc(C)n2)c2ncc(C(=O)Nc3c(C)cccc3Cl)s2)n1	F
COc1ccc(OC)c(NC=O)c1	T
c1coc2occoc=2o1	T
Cc1ccc(-c2cc(O)c(-c3ccc(C)cc3C)cc2O)c(C)c1	T
Cn1cc(-c2nnc(-c3cn(C)c4ncc(Br)cc34)o2)c2ccccc21	T
CSc1cccc([N+](=O)[O-])c1	T
Cc1cnc(N)nc1OCC(C)(C)CNC(=O)c1cccc(-c2ccc(S(=O)(=O)Nc3ccc4c(c3)N(C(=O)C3CC3)CCC4)cc2)c1	F
COc1cc(NN=C(c2ccc(O)cc2)c2ccc(O)cc2)c([N+](=O)[O-])cc1[N+](=O)[O-]	T
Cc1ccc(-c2cc(-c3ccc(C)cc3)nc(NCCNc3ccnc4cc(Cl)ccc34)n2)cc1	F

---

test system: BT-549 breast; assay: NCI-60 one-dose screen, 48 h (100 = growth as untreated, 0 = no growth, -100 = all killed); conditions: 10 µM unless noted
Compounds without any hit were thinned out: in the full panel of roughly 83,000, 20% have a hit.

Compound	Target Desc	growth (%)
Cc1ccc(S(=O)(=O)Nc2ccccc2)cc1N	BT-549 breast	49.5
Cc1cccc(C[C@H](NC(=O)Nc2ccc(C)cc2F)C(=O)N[C@@H]2C(=O)N3C[C@H](O)C[C@H]3C(=O)N3CCN(C)C[C@H]3C(=O)N[C@@H](C)C(=O)N3C[C@H](C)C[C@H]3C(=O)O[C@H]2C)c1	BT-549 breast	22.1
CCOC(=O)n1cc(C2=C(c3ccc(OC)c(OC)c3)COC2=O)c2ccccc21	BT-549 breast	0.425
CC(C)(C)c1cc(C(=O)Nc2ccccc2C(=O)NCCN)cc(C(C)(C)C)c1	BT-549 breast	99.2
c1ccc(-c2nnc(-c3c[nH]c4ncccc34)s2)cc1	BT-549 breast	95.3
CCCCCCCCCCCCCCCCCCNC(=S)N/N=C/c1ccc(OC)c(OC)c1	BT-549 breast	79.9
O=C(N=c1n(-c2ccccc2)nc2n1CCN2C1=NCCN1C(=O)c1ccc(Cl)cc1)c1ccc(Cl)cc1	BT-549 breast	59.6
COc1ncnc2c(-c3ccccc3)cn(COCc3ccccc3)c12	BT-549 breast	36.6
COc1cc(C)cc2oc3oc(=O)c(-c4nc5ccccc5s4)cc3c(=O)c12	BT-549 breast	92.7
O=S(=O)(NCc1ccccc1)c1ncnc2nc[nH]c12	BT-549 breast	93.7
c1cc2ccc3cc2cc1CNCCN1CCNCc2ccc4ccc(cc4c2)CNCCN(CCNC3)CCNCc2ccc3ccc(cc3c2)CNCC1	BT-549 breast	97.3
CC[C@@H]1NC(=O)[C@@H]2CCCCN2C(=O)[C@@H]2CCCN2C(=O)[C@@H](NC(=O)[C@H](Cc2cc(F)cc(F)c2)NC(=O)Nc2ccc(C3CC3)cc2F)[C@H](C)OC(=O)[C@@H]2C[C@@H](C)CN2C1=O	BT-549 breast	5.79
CSc1cccc([N+](=O)[O-])c1	BT-549 breast	104
COc1ccc(-c2cc(-c3ccccc3)nc(NCCNc3ccnc4cc(Cl)ccc34)n2)cc1	BT-549 breast	-69.4
CN(C)CCOc1ccc(/C(=C(/CCCl)c2ccccc2)c2ccccc2)cc1	BT-549 breast	46.8
CCCCCn1c(C)cc(/C=C\c2ccc3cc(C)ccc3[n+]2C)c1C	BT-549 breast	-29.9
COc1cc2c(=O)[nH]c3cc([N+](=O)[O-])ccc3c2cc1[N+](=O)[O-]	BT-549 breast	50.4
CCn1cc(-c2cc(-c3ccc(Cl)cc3)nc(N)n2)c(-c2ccc(Br)cc2)n1	BT-549 breast	91.3
CCOC(=O)c1cnc2ccc(Br)cc2c1Nc1cccc(S(N)(=O)=O)c1	BT-549 breast	96.3
CC(C)C1=NOC(=O)C1=Cc1cn(-c2ccccc2)nc1-c1ccc(Cl)cc1	BT-549 breast	117
C#C[C@]1(O)CC[C@H]2[C@@H]3CC=C4c5nc(Nc6ccc(OC)cc6OC)sc5CC[C@]4(C)[C@H]3CC[C@@]21C	BT-549 breast	-16.7
Nc1cc(C(=O)O)[nH]c(=S)n1	BT-549 breast	69.1
COc1ccc(C2CC(c3ccc4ccccc4c3)=NN2c2nc(O)c(C3=c4cc(OC)ccc4=NC3=O)s2)cc1 (centres undefined)	BT-549 breast	-19.8
O=C(Nc1ccc(C(=O)/C=C/c2ccc(N3CCOCC3)cc2)cc1)Nc1ccc([N+](=O)[O-])cc1	BT-549 breast	108
CCCCCN(CCCCC)CCCCCCCCN1CCCc2ccccc21	BT-549 breast	88.6
Cc1cc(SC#N)ncn1	BT-549 breast	126
O=C1CC(c2ccccc2)Cc2nc3ccc(Cl)cc3cc21 (centres undefined)	BT-549 breast	4.62
CCOC(=O)c1ccc2nc(-c3c(C)nn(-c4ccccc4)c3N3CCOCC3)[nH]c2c1	BT-549 breast	93.4
CC(C)C1=NOC(=O)C1=Cc1cn(-c2ccco2)nc1-c1ccccc1	BT-549 breast	116
CC(C)(C)c1cc(C(=O)Nc2cc3ccccc3cc2C(=O)NCCN)cc(C(C)(C)C)c1	BT-549 breast	82.2
O=C1Nc2ccccc2/C1=C/C(=O)c1ccc(N2CCCCC2)cc1	BT-549 breast	90.8
COc1ccc(C(=O)CSc2nnc(-c3cc(-c4ccccc4)nc4ccccc34)o2)cc1	BT-549 breast	105
O=C1CN(Cc2ccc(C(=O)NO)cc2)C(=O)[C@@H](Cc2ccccc2)N1	BT-549 breast	101
CC1=CC[C@@H]2C(C)(C)[C@@H](O)CC[C@@]2(C)[C@@H]1COc1ccc2ccc(=O)oc2c1	BT-549 breast	18
O=C1COCCN1c1ccc(Nc2nc(Cl)nc(N3CCOCC3)n2)cc1	BT-549 breast	97.1
CC(C)c1ccc(/C=N/N=C(N)N)cc1	BT-549 breast	86.3
COc1c(C(C)=O)c(OCCCCOc2c(C(C)=O)c(OC)c3ccoc3c2OC)c(OC)c2occc12	BT-549 breast	98.8
Brc1ccc(-c2nnc3c4[nH]ccc4ncn23)cc1	BT-549 breast	94.3
N#CCCc1c[nH]c2ccccc12	BT-549 breast	97.6

// provenance: PubChem BioAssay (NCI)
